The reader will find reported t1/2 Buffer pH 7.4 values listed item by item below.
Number only, in min; omit the unit.

Answered cases to consult:
{"structureSmilesString": "Nc1ccn([C@@H]2O[C@H](COC(=O)[C@@H](N)Cc3ccccc3)[C@@H](O)C2(F)F)c(=O)n1", "measured": 200.0}
{"structureSmilesString": "Nc1ccn([C@@H]2O[C@H](COC(=O)[C@H](N)Cc3ccccc3)[C@@H](O)C2(F)F)c(=O)n1", "measured": 204.0}

Consider the additional compound presented here.
Exercise: What does the data say about its t1/2 Buffer pH 7.4? Entry: CC[C@H](C)[C@H](N)C(=O)OC[C@H]1O[C@@H](n2ccc(N)nc2=O)C(F)(F)[C@@H]1OC(=O)[C@@H](N)[C@@H](C)CC
Key: 61.0
